Measured kon accompanies every entry in the list below.
- systemUnderTest: T1, Histidine-tagged human 4-1BB protein (h4-1BB-His) (human, UniProt Q07011 24-186)
- T1 construct: not shown: histidine tag
- testDetails: SPR (Biacore T200), antibody on Protein A chip, h4-1BB-His injected;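 note: dissociation phase followed for 300 s, Kd derived as koff divided by kon from the kinetic fit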
Kindly answer with a numeric value in M⁻¹ s⁻¹, unit omitted.

Quick one: kon for 6A5-H2K1-IgG2 (antibody, V domains shown, humanized) VH: QVQLVQSGAEVKKPGSSVKLSCKASGYTFSSYWINWVRQAPGQGLEWIGNIYPSDSYTNYNQKFKDRATLTVDKSTSTAYMELSSLRSEDTAVYYCTRTWEFYYDSVFDYWGQGTLVTVSS VL: DIQMTQSPSSLSASLGERVTITCKASQDINSYLSWYQQKPGKAPKLLIYRANRLVDGVPSRFSGSGSGQDFTLTISSLQPEDIATYYCLQYDELPPTFGGGTKVEIK ?
668000

Quick one: kon for 5F9-H2K4-IgG4 (antibody, V domains shown, humanized) VH: QVQLKESGPGLVKPSETLSLTCTVSGFSLTTYDISWVRQPPGKGLEWLGVIWTGGGTNYNSSFMSRVTISKDTSKNQVSLKLSSVTAADTAIYYCERVDYWGQGTTVTVSS VL: DVVMTQSPLSLPVTLGDPASISCRSSQSLVHSNGNTYLHWYLQRPGQSPKLLIYKVSNRFSGVPDRFSGSGSGTAFTFKISRVEAEDVGVYYCSQNTHVPWTFGGGTKLEIK ?
216000
